Where do these numbers come from? They come from patent US20250215104A1.

# assay_target: T1, human soluble urokinase plasminogen activator receptor (suPAR) (human, UniProt Q03405 23-303, limits assumed)
# T1 construct: Column head says only 'human'; also called hsuPAR; human suPAR
# T1 sequence (Q03405 23-303 limits assumed): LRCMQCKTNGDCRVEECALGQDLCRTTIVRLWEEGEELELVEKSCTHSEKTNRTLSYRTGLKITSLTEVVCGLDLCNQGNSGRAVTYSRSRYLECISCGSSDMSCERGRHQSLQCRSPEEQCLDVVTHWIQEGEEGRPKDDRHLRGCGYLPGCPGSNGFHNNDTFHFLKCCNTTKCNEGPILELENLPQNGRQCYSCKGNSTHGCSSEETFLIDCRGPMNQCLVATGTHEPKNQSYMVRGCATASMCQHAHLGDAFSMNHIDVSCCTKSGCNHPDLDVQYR
# method_description: BLI (Octet) off-rate screen of scFv clones
measured_parameter: koff (s⁻¹)
Enter your answer as a number in s⁻¹; do not include the unit.

Solved cases (4 shown):
Inquiry: For the binder suPAR_DB05_D09 (scFv, V domains shown, Screened as scFv) VH: QVQLVQSGAEVKKPGASVKVSCKASGYTFTSYYMHWVRQAPGQGLEWMGWIDPENGNTIYAQKFQGRVTMTRDTSTSTVYMELSSLRSEDTAVYYCARGYDVDWFVYWGQGTLVTVSS VL: DIQMTQSPSSLSASVGDRVTITCSARSSVSYMYWYQQKPGKAPKLLIYRTSSLASGVPSRFSGSGSGTDFTLTISSLQPEDFATYYCQQYHSYPPTFGGGTKVEIK , what koff is on record?
Reply text: 0.00384

Inquiry: What does the data say about its koff? Entry: suPAR_DB05_D12 (scFv, V domains shown, Screened as scFv) VH: QVQLVQSGAEVKKPGASVKVSCKASGFTFTNYYFHWVRQAPGQGLEWMGWIDPENGNTIYDQKFQGRVTMTRDTSTSTVYMELSSLRSEDTAVYYCARGYDVDWFVYWGQGTLVTVSS VL: DIQMTQSPSSLSASVGDRVTITCSARSSVSYMYWYQQKPGKAPKLLIYRTSNLASGVPSRFSGSGSGTDFTLTISSLQPEDFATYYCQQYHSYPPTFGGGTKVEIK
Reply text: 0.00477

Inquiry: What value of koff has been recorded for this entry: suPAR_DB05_A11 (scFv, V domains shown, Screened as scFv) VH: QVQLVQSGAEVKKPGASVKVSCKASGYTFTGYYMHWVRQAPGQGLEWMGWIDPNSGGTNYAQKFQGRVTMTRDTSTSTVYMELSSLRSEDTAVYYCARGYDVDWFVYWGQGTLVTVSS VL: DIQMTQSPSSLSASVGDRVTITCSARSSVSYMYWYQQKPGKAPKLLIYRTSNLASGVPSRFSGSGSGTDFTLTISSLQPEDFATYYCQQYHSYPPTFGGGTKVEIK
Reply text: 0.0018

Inquiry: I would be grateful if you could share the reported koff for suPAR_DB05_D02 (scFv, V domains shown, Screened as scFv) VH: QVQLVQSGAEVKKPGASVKVSCKASGYTITGNYMHWVRQAPGQGLEWMGWIDHENGSTIYDQKFQGRVTMTRDTSTSTVYMELSSLRSEDTAVYYCARGYDVDWFVYWGQGTLVTVSS VL: DIQMTQSPSSLSASVGDRVTITCSARQSISYMYWYQQKPGKAPKLLIYRTSNLASGVPSRFSGSGSGTDFTLTISSLQPEDFATYYCQQYHSYPPTFGGGTKVEIK .
Reply text: 0.00116

Then this binder:
Inquiry: Which measured koff value corresponds to suPAR_DB05_B11 (scFv, V domains shown, Screened as scFv) VH: QVQLVQSGAEVKKPGASVKVSCKASGYTFSAYYMHWVRQAPGQGLEWMGWIDHENGNTIYAQKFQGRVTMTRDTSTSTVYMELSSLRSEDTAVYYCARGYDVDWFVYWGQGTLVTVSS VL: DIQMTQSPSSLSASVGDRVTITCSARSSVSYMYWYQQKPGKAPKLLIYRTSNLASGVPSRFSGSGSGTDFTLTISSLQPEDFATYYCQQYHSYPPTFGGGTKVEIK ?
Reply text: 0.00219
